- Tested on: MCF-7 human breast adenocarcinoma cell line
- Assay Remarks: SRB cell proliferation (cytotoxicity) assay, MCF-7
- Reported Conditions: read-out: IC50: Concentration to inhibit 50% of cell growth; MCF-7
- Excerpt: The XLSTAT software was used to determine the IC50, TGI and LC50 values using the four-parameter logistic curve equation.
Readout Name: pIC50
FYI, pIC50 means -log10 of a concentration in mol per litre.

Known pIC50 results, listed for orientation:
Suppose we examine the molecule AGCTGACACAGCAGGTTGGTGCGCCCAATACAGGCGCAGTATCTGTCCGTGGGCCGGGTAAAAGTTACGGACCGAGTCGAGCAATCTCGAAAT (nucleic acid, chemistry not given here) DNA: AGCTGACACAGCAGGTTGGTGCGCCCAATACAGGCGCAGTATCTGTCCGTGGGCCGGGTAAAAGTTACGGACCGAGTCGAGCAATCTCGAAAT ; what pIC50 value has been reported?
4.75

Now give it for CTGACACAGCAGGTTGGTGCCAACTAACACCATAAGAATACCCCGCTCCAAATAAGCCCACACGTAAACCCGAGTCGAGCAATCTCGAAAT (nucleic acid, chemistry not given here, DNA aptamer that recognizes human galectin-1) DNA: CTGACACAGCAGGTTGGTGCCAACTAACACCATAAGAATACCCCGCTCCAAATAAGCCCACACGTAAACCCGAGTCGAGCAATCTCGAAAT too.
4.45

Repeat with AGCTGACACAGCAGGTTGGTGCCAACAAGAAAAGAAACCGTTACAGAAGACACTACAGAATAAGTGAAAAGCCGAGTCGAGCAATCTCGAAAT (nucleic acid, chemistry not given here) DNA: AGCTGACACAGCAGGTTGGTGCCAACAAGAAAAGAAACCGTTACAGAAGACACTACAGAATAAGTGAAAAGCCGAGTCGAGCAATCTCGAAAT
4.61

Let us examine a further case.
Which pIC50 is reported for this molecule? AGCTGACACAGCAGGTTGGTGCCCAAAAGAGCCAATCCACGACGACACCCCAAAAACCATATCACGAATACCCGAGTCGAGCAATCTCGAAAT (nucleic acid, chemistry not given here) DNA: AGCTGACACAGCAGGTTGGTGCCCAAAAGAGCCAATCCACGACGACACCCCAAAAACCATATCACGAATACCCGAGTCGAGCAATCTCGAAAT
4.50

The measurements presented in this section are drawn from patent US11649460B2.
